SPOT peptide array binding signal intensity: recorded values
Molecular target: SpSla1-D1-D2
Assay: SPOT peptide array binding signal intensity (averaged, normalized) (arbitrary units (background-subtracted, floor 0; scale differs between SH3 domains)); higher = stronger binding of the SH3 domain to the peptide

// known answers, use as guide
• WRPRIVPILPYITRL = ≤ 0
• APERAVPILPPRNNV = ≤ 0

# next binder below
Enquiry: May I ask what SPOT peptide array binding signal intensity has been recorded for "PSRRAPLQLPQLVNK" ?
Return: ≤ 0
